Every entry's value here was drawn from ChEMBL document CHEMBL1926569.

- System: Talaromyces funiculosus
- Experiment Notes: Antifungal activity against Penicillium funiculosum ATCC 36839 after 72 hrs by serial dilution technique
- Type: functional
- Details: ATCC 36839, 72 h
Reported Property: MIC (µM)

Smiles Data	MIC / µM
CCNc1nc(C)c(C(=O)/C=C/c2ccc([N+](=O)[O-])cc2)s1	31.5
CCNc1nc(C)c(C(=O)/C=C/c2ccccc2OC)s1	33.1
CNc1nc(C)c(C(=O)/C=C/c2cccc(F)c2)s1	36.2
CCNc1nc(C)c(C(=O)/C=C/c2ccc(F)cc2)s1	34.5
CCNc1nc(C)c(C(=O)/C=C/c2cccc(Br)c2)s1	28.9
CCNc1nc(C)c(C(=O)/C=C/c2cccc(Cl)c2)s1	32.7
CCNc1nc(C)c(C(=O)/C=C/c2cccc(F)c2)s1	34.5
CCCNc1nc(C)c(C(=O)/C=C/c2ccccc2)s1	52.4
CCNc1nc(C)c(C(=O)/C=C/c2ccc(Cl)cc2)s1	32.7
CCNc1nc(C)c(C(=O)/C=C/c2ccc(OC)cc2)s1	33.1
CNc1nc(C)c(C(=O)/C=C/c2ccc(F)cc2)s1	36.2
CNc1nc(C)c(C(=O)/C=C/c2cccc(C)c2)s1	36.8

###

- Tested on: Pseudomonas aeruginosa
- Experiment Notes: Antibacterial activity against Pseudomonas aeruginosa ATCC 27853 after 24 hrs by microdilution method
- Assay type: functional
- Details: ATCC 27853, 24 h
Reported Property: MIC (µM)

Molecule	MIC (µM)
CNc1nc(C)c(C(=O)/C=C/c2cccc(Br)c2)s1	74.2
CC1(C)S[C@@H]2[C@H](NC(=O)[C@H](N)c3ccccc3)C(=O)N2[C@H]1C(=O)O [AMPICILLIN]	744
CNc1nc(C)c(C(=O)/C=C/c2cccc(Cl)c2Cl)s1	61.2
CNc1nc(C)c(C(=O)/C=C/c2cccc(F)c2)s1	54.3
CCNc1nc(C)c(C(=O)/C=C/c2cccc(Cl)c2)s1	65.3

(I) CCNc1nc(C)c(C(=O)/C=C/c2cccc(F)c2)s1
(II) CN[C@@H]1[C@H](O[C@H]2[C@H](O[C@H]3[C@H](O)[C@@H](O)[C@H](N=C(N)N)[C@@H](O)[C@@H]3N=C(N)N)O[C@@H](C)[C@]2(O)C=O)O[C@@H](CO)[C@H](O)[C@H]1O [STREPTOMYCIN]
// which entry reports the smaller MIC, I or II ? Give the label under which the chosen entry appears.
I

###

- System: Escherichia coli
- Experiment Notes: Antibacterial activity against Escherichia coli ATCC 35210 after 24 hrs by microdilution method
- Type: functional
- Details: ATCC 35210, 24 h
Reported Property: MIC (µM)

Molecule	U	Endpoint Result
CCNc1nc(C)c(C(=O)/C=C/c2cccc(Br)c2)s1	µM	57.1
CNc1nc(C)c(C(=O)/C=C/c2ccc(F)cc2)s1	µM	54.3
CNc1nc(C)c(C(=O)/C=C/c2cccc(Cl)c2Cl)s1	µM	45.9
CCNc1nc(C)c(C(=O)/C=C/c2ccccc2)s1	µM	73.5
CNc1nc(C)c(C(=O)/C=C/c2cccc(Br)c2)s1	µM	74.2
CCNc1nc(C)c(C(=O)/C=C/c2ccc(F)cc2)s1	µM	51.7

(A) CCNc1nc(C)c(C(=O)/C=C/c2ccccc2Cl)s1
(B) CCCNc1nc(C)c(C(=O)/C=C/c2ccccc2)s1
(C) CC1(C)S[C@@H]2[C@H](NC(=O)[C@H](N)c3ccccc3)C(=O)N2[C@H]1C(=O)O [AMPICILLIN]
(D) CN[C@@H]1[C@H](O[C@H]2[C@H](O[C@H]3[C@H](O)[C@@H](O)[C@H](N=C(N)N)[C@@H](O)[C@@H]3N=C(N)N)O[C@@H](C)[C@]2(O)C=O)O[C@@H](CO)[C@H](O)[C@H]1O [STREPTOMYCIN]
Descending sort on MIC required. Dear reader, please state the labels in the requested order.
C, D, B, A
(C: 372 µM, D: 172 µM, B: 70 µM, A: 48.9 µM)

(1) CNc1nc(C)c(C(=O)/C=C/c2cccc(C)c2)s1
(2) CCNc1nc(C)c(C(=O)/C=C/c2ccc([N+](=O)[O-])cc2)s1
1 or 2 : whose MIC is greater? Give the label under which the chosen entry appears.
2
(2: 94.6 µM, 1: 55.1 µM)

(I) CCNc1nc(C)c(C(=O)/C=C/c2ccc(OC)cc2)s1
(II) CCNc1nc(C)c(C(=O)/C=C/c2ccccc2OC)s1
// which entry reports the smaller MIC, I or II ? Give the label under which the chosen entry appears.
I

###

- System: Salmonella typhimurium
- Experiment Notes: Antibacterial activity against Salmonella Typhimurium ATCC 13311 incubated for 24 hrs followed by serial sub-cultivation for 24 hrs by microdilution
- Assay type: functional, Salmonella enterica subsp. enterica serovar Typhimurium
- Details: Salmonella enterica, ATCC 13311, 24 h
Reported Property: MBC (µM)
Write the number in µM without appending the unit.

Molecule	U	Endpoint Result
CCNc1nc(C)c(C(=O)/C=C/c2cccc([N+](=O)[O-])c2)s1	µM	63.1
CNc1nc(C)c(C(=O)/C=C/c2cccc(F)c2)s1	µM	90.6
CCNc1nc(C)c(C(=O)/C=C/c2ccc(Cl)cc2)s1	µM	49
CCNc1nc(C)c(C(=O)/C=C/c2ccc([N+](=O)[O-])cc2)s1	µM	63.1
CCNc1nc(C)c(C(=O)/C=C/c2ccccc2OC)s1	µM	82.8

# input molecule: "CCCNc1nc(C)c(C(=O)/C=C/c2ccccc2)s1" ; wanted: its MBC
90

# input molecule: "CNc1nc(C)c(C(=O)/C=C/c2cccc(Br)c2)s1" ; wanted: its MBC
74.2

# input molecule: "CCNc1nc(C)c(C(=O)/C=C/c2cccc(Br)c2)s1" ; wanted: its MBC
71.4

# input molecule: "CNc1nc(C)c(C(=O)/C=C/c2cccc(C)c2)s1" ; wanted: its MBC
91.9

# input molecule: "CCNc1nc(C)c(C(=O)/C=C/c2cccc(Cl)c2)s1" ; wanted: its MBC
65.3

###

- Test system: Staphylococcus aureus
- Experiment Notes: Antibacterial activity against Staphylococcus aureus ATCC 6538 incubated for 24 hrs followed by serial sub-cultivation for 24 hrs by microdilution method
- Format: functional
- Details: ATCC 6538, 24 h
Reported Property: MBC (µM)
Write the number in µM without appending the unit.

Previously resolved entries follow.
Smiles Data	Reported Property	U	Endpoint Result
CCNc1nc(C)c(C(=O)/C=C/c2ccccc2Cl)s1	MBC	µM	98.1
CCNc1nc(C)c(C(=O)/C=C/c2cccc(F)c2)s1	MBC	µM	103
CCNc1nc(C)c(C(=O)/C=C/c2cccc(Cl)c2)s1	MBC	µM	98
CNc1nc(C)c(C(=O)/C=C/c2ccc(F)cc2)s1	MBC	µM	72.5
CCNc1nc(C)c(C(=O)/C=C/c2ccccc2OC)s1	MBC	µM	99.3

# input compound: "CCNc1nc(C)c(C(=O)/C=C/c2ccc(Cl)cc2)s1" ; wanted: its MBC
98

# input compound: "CNc1nc(C)c(C(=O)/C=C/c2cccc(C)c2)s1" ; wanted: its MBC
110

# input compound: "CCNc1nc(C)c(C(=O)/C=C/c2ccccc2)s1" ; wanted: its MBC
110

# input compound: "CCNc1nc(C)c(C(=O)/C=C/c2cccc(Br)c2)s1" ; wanted: its MBC
71.4

# input compound: "CNc1nc(C)c(C(=O)/C=C/c2cccc(Br)c2)s1" ; wanted: its MBC
74.2

###

- Test system: Pseudomonas aeruginosa
- Experiment Notes: Antibacterial activity against Pseudomonas aeruginosa ATCC 27853 after 24 hrs by microdilution method
- Assay type: functional
- Details: ATCC 27853, 24 h
Reported Property: MIC (µM)

Smiles Data	System Under Test	U	MIC
CCCNc1nc(C)c(C(=O)/C=C/c2ccccc2)s1	Pseudomonas aeruginosa	µM	70
CCNc1nc(C)c(C(=O)/C=C/c2ccccc2Cl)s1	Pseudomonas aeruginosa	µM	48.9
CCNc1nc(C)c(C(=O)/C=C/c2ccccc2OC)s1	Pseudomonas aeruginosa	µM	82.8
CCNc1nc(C)c(C(=O)/C=C/c2cccc(Br)c2)s1	Pseudomonas aeruginosa	µM	57.1
CNc1nc(C)c(C(=O)/C=C/c2cccc(C)c2)s1	Pseudomonas aeruginosa	µM	73.5
CCNc1nc(C)c(C(=O)/C=C/c2ccccc2)s1	Pseudomonas aeruginosa	µM	73.5
CCNc1nc(C)c(C(=O)/C=C/c2ccc([N+](=O)[O-])cc2)s1	Pseudomonas aeruginosa	µM	47.3
CCNc1nc(C)c(C(=O)/C=C/c2ccc(OC)cc2)s1	Pseudomonas aeruginosa	µM	66.2
CCNc1nc(C)c(C(=O)/C=C/c2ccc(F)cc2)s1	Pseudomonas aeruginosa	µM	68.9
CCNc1nc(C)c(C(=O)/C=C/c2cccc([N+](=O)[O-])c2)s1	Pseudomonas aeruginosa	µM	78.9
CNc1nc(C)c(C(=O)/C=C/c2ccc(F)cc2)s1	Pseudomonas aeruginosa	µM	72.5
CCNc1nc(C)c(C(=O)/C=C/c2ccc(Cl)cc2)s1	Pseudomonas aeruginosa	µM	65.3
